# measurement_notes: Stability in dog microsomes assessed as parent compound remaining at 60 mins
# Type: ADME, Canis lupus familiaris, Microsome
# condition_description: read-out: Stabilty
result_type: remaining at 1 h (%)

[
  {
    "given_smiles": "CN[C@@H](C)C(=O)N[C@H](C(=O)N1CCC[C@H]1C(=O)Nc1cc2c(N[C@H]3CC[C@H](Nc4ncnc5cc(OC)c(NC(=O)[C@@H]6CCCN6C(=O)[C@@H](NC(=O)[C@H](C)NC)C(C)(C)C)cc45)CC3)ncnc2cc1OC)C(C)(C)C",
    "remaining at 1 h / %": 63
  },
  {
    "given_smiles": "CN[C@@H](C)C(=O)N[C@H](C(=O)N1CCC[C@H]1C(=O)Nc1cc2c(NCC#CC#CCNc3ncnc4cc(OC)c(NC(=O)[C@@H]5CCCN5C(=O)[C@@H](NC(=O)[C@H](C)NC)C(C)(C)C)cc34)ncnc2cc1OC)C(C)(C)C",
    "remaining at 1 h / %": 65
  }
]
